Catalogue of IC50 values
Protein target, amino acids: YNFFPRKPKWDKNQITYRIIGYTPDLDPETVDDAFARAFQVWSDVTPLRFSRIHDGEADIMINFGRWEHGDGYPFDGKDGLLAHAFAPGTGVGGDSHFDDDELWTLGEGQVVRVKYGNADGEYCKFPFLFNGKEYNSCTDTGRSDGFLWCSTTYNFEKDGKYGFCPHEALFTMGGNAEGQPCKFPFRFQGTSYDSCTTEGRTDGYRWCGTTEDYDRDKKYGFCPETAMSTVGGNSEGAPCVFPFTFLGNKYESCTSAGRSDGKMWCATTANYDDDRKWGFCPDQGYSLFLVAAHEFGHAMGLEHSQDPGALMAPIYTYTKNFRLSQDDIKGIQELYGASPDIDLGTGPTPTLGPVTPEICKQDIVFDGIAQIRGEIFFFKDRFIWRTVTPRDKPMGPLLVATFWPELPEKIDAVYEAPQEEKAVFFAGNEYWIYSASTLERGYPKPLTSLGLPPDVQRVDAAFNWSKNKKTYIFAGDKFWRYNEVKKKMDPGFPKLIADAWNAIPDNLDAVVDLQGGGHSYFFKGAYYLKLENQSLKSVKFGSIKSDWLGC
Residues, ends and D or L forms follow the SMILES beside them.
Quick note: give the figure in µM, leave out the unit.

Prompt: Give the measured IC50 of CC(C)C[C@H](NC(=O)[C@H](CC(C)C)NC(=O)[C@@H]1CCCN1C(=O)[C@H](CC(C)C)NC(=O)[C@@H]1CCCN1C(=O)[C@H](CC(C)C)NC(=O)[C@H](Cc1c[nH]cn1)NC(=O)[C@H](CC(C)C)NC(=O)[C@H](CC(N)=O)NC(=O)[C@@H](N)CCC(=O)O)C(=O)O [ENLHLPLPLL] (H-ENLHLPLPLL-OH; N-terminus and C-terminus assumed) .
Response: 200

Prompt: Give the measured IC50 of CC(C)[C@H](NC(=O)[C@H](CCC(=O)O)NC(=O)[C@@H]1CCCN1C(=O)[C@H](Cc1ccccc1)NC(=O)[C@@H]1CCCN1C(=O)[C@H](C)NC(=O)[C@@H](NC(=O)[C@@H](N)Cc1ccccc1)C(C)C)C(=O)N[C@@H](Cc1ccccc1)C(=O)NCC(=O)O [FVAPFPEVFG] (H-FVAPFPEVFG-OH; N-terminus and C-terminus assumed) .
Response: 500

Prompt: Give the measured IC50 of CC(C)C[C@H](NC(=O)[C@H](CC(C)C)NC(=O)[C@@H]1CCCN1C(=O)[C@H](CC(C)C)NC(=O)[C@@H]1CCCN1C(=O)[C@H](CC(C)C)NC(=O)[C@H](Cc1c[nH]cn1)NC(=O)[C@H](CC(C)C)NC(=O)[C@H](CC(N)=O)NC(=O)[C@H](CCC(=O)O)NC(=O)[C@@H](N)C(C)C)C(=O)O [VENLHLPLPLL] (H-VENLHLPLPLL-OH; N-terminus and C-terminus assumed) .
Response: 150

Prompt: Give the measured IC50 of CC(C)C[C@H](NC(=O)[C@H](CC(C)C)NC(=O)[C@H](CC(N)=O)NC(=O)[C@@H](N)CCC(=O)O)C(=O)N[C@@H](CCCNC(=N)N)C(=O)N[C@@H](Cc1ccccc1)C(=O)N[C@@H](Cc1ccccc1)C(=O)N[C@H](C(=O)N[C@@H](C)C(=O)N1CCC[C@H]1C(=O)N[C@@H](Cc1ccccc1)C(=O)N1CCC[C@H]1C(=O)N[C@@H](CCC(=O)O)C(=O)N[C@H](C(=O)N[C@@H](Cc1ccccc1)C(=O)NCC(=O)O)C(C)C)C(C)C [ENLLRFFVAPFPEVFG] (H-ENLLRFFVAPFPEVFG-OH; N-terminus and C-terminus assumed) .
Response: 425

Prompt: Give the measured IC50 of CC(C)C[C@H](NC(=O)[C@H](CC(C)C)NC(=O)[C@@H]1CCCN1C(=O)[C@H](CC(C)C)NC(=O)[C@@H]1CCCN1C(=O)[C@H](CC(C)C)NC(=O)[C@H](Cc1c[nH]cn1)NC(=O)[C@H](CC(C)C)NC(=O)[C@@H](N)CC(N)=O)C(=O)O [NLHLPLPLL] (H-NLHLPLPLL-OH; N-terminus and C-terminus assumed) .
Response: 450
